Test system: NCI-H510 multicellular tumor spheroid growth, % test/control
ASSAY_TEXT: Anticancer human tumor NCI-H510 cell line growth inhibition [Asc];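 further: spheroids exposed to agents for 7 days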;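 on viability, T/C: 100% = DMSO vehicle control wells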
EXPERIMENTAL_PARAMETERS: second compound 0.3 µM; first compound 1 µM; stronger effect = lower value
MEASURED_ENDPOINT: viability, T/C (%)

INSERT INTO results (compound, value_reported) VALUES
  ('C=CC(=O)N1CCN(c2nc(=O)n(-c3c(C)ccnc3C(C)C)c3nc(-c4c(O)cccc4F)c(F)cc23)C(C)C1 (stereo not drawn) + CCN1C(C(=O)NC23CCC(C(=O)O)(CC2)CC3)C(c2cccc(Cl)c2F)C2(C(=O)Nc3cc(Cl)ccc32)C12CCCCC2', 101),
  ('C=C(F)C(=O)N1CCN(c2nc(OCC3CCCN3C)nc3c2CCN(c2cccc4cccc(Cl)c24)C3)CC1CC#N (stereo not drawn) + CCN1C(C(=O)NC23CCC(C(=O)O)(CC2)CC3)C(c2cccc(Cl)c2F)C2(C(=O)Nc3cc(Cl)ccc32)C12CCCCC2', 62.5),
  ('O=C(c1ccc(F)c(F)c1Nc1ccc(I)cc1F)N1CC(O)([C@@H]2CCCCN2)C1 + CCN1C(C(=O)NC23CCC(C(=O)O)(CC2)CC3)C(c2cccc(Cl)c2F)C2(C(=O)Nc3cc(Cl)ccc32)C12CCCCC2', 91.5),
  ('COc1c(OCCCN2CCOCC2)ccc2c3n(c(=NC(=O)c4cnc(N)nc4)nc12)CCN3 + CCN1C(C(=O)NC23CCC(C(=O)O)(CC2)CC3)C(c2cccc(Cl)c2F)C2(C(=O)Nc3cc(Cl)ccc32)C12CCCCC2', 51.2),
  ('CNC(C)C(=O)NC1CN(S(=O)(=O)c2cccc(S(=O)(=O)N3CCC4CCC(C(=O)NC(c5ccccc5)c5ccccc5)N4C(=O)C(NC(=O)C(C)NC)C3)c2)CCC2CCC(C(=O)NC(c3ccccc3)c3ccccc3)N2C1=O (stereo not drawn) + CCN1C(C(=O)NC23CCC(C(=O)O)(CC2)CC3)C(c2cccc(Cl)c2F)C2(C(=O)Nc3cc(Cl)ccc32)C12CCCCC2', 83.7),
  ('CCN1CCN(Cc2ccc(Nc3ncc(F)c(-c4cc(F)c5nc(C)n(C(C)C)c5c4)n3)nc2)CC1 + CCN1C(C(=O)NC23CCC(C(=O)O)(CC2)CC3)C(c2cccc(Cl)c2F)C2(C(=O)Nc3cc(Cl)ccc32)C12CCCCC2', 88.7),
  ('O=C(c1cc(Cc2n[nH]c(=O)c3ccccc23)ccc1F)N1CCN(C(=O)C2CC2)CC1 + CCN1C(C(=O)NC23CCC(C(=O)O)(CC2)CC3)C(c2cccc(Cl)c2F)C2(C(=O)Nc3cc(Cl)ccc32)C12CCCCC2', 57),
  ('C#Cc1c(F)ccc2cc(O)cc(-c3ncc4c(N5CC6CCC(C5)N6)nc(OCC56CCCN5CC(F)C6)nc4c3F)c12 (stereo not drawn) + CCN1C(C(=O)NC23CCC(C(=O)O)(CC2)CC3)C(c2cccc(Cl)c2F)C2(C(=O)Nc3cc(Cl)ccc32)C12CCCCC2', 107);

---

Measured IC50 accompanies every entry in the list below.
System: NCI-H510 multicellular tumor spheroid growth, % test/control
ASSAY_TEXT: Anticancer human tumor NCI-H510 cell line growth inhibition [Asc];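 further: spheroids exposed to agents for 7 days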
EXPERIMENTAL_PARAMETERS: curve of first compound; second compound 0.0316 µM
MEASURED_ENDPOINT: IC50

INSERT INTO results (compound, value_reported) VALUES
  ('Cn1ncnc1[C@H]1c2n[nH]c(=O)c3cc(F)cc(c23)N[C@@H]1c1ccc(F)cc1 + CNC(C)C(=O)NC1CN(S(=O)(=O)c2cccc(S(=O)(=O)N3CCC4CCC(C(=O)NC(c5ccccc5)c5ccccc5)N4C(=O)C(NC(=O)C(C)NC)C3)c2)CCC2CCC(C(=O)NC(c3ccccc3)c3ccccc3)N2C1=O', '> 100 nM'),
  ('NC(=O)C(=Cn1cnc(-c2cc(C(F)(F)F)cc(C(F)(F)F)c2)n1)c1cncnc1 + CNC(C)C(=O)NC1CN(S(=O)(=O)c2cccc(S(=O)(=O)N3CCC4CCC(C(=O)NC(c5ccccc5)c5ccccc5)N4C(=O)C(NC(=O)C(C)NC)C3)c2)CCC2CCC(C(=O)NC(c3ccccc3)c3ccccc3)N2C1=O', '> 300 nM');

---

Measured viability, T/C accompanies every entry in the list below.
Tested on: NCI-H510 multicellular tumor spheroid growth, % test/control
ASSAY_TEXT: Anticancer human tumor NCI-H510 cell line growth inhibition [Asc];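 further: spheroids exposed to agents for 7 days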;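 on viability, T/C: 100% = DMSO vehicle control wells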
EXPERIMENTAL_PARAMETERS: second compound 0.3 µM; first compound 0.0316 µM; stronger effect = lower value
MEASURED_ENDPOINT: viability, T/C (%)

INSERT INTO measurements (compound, tested_on, measured_endpoint, readout_unit, value_reported) VALUES
  ('O=C(c1ccc(F)c(F)c1Nc1ccc(I)cc1F)N1CC(O)([C@@H]2CCCCN2)C1 + CCN1C(C(=O)NC23CCC(C(=O)O)(CC2)CC3)C(c2cccc(Cl)c2F)C2(C(=O)Nc3cc(Cl)ccc32)C12CCCCC2', 'NCI-H510 multicellular tumor spheroid growth, % test/control', 'viability, T/C', '%', 120),
  ('NC1CCC(NC2CC2c2ccccc2)CC1 (stereo not given) + CCN1C(C(=O)NC23CCC(C(=O)O)(CC2)CC3)C(c2cccc(Cl)c2F)C2(C(=O)Nc3cc(Cl)ccc32)C12CCCCC2', 'NCI-H510 multicellular tumor spheroid growth, % test/control', 'viability, T/C', '%', 73.3),
  ('C#Cc1c(F)ccc2cc(O)cc(-c3ncc4c(N5CC6CCC(C5)N6)nc(OCC56CCCN5CC(F)C6)nc4c3F)c12 (stereo not given) + CCN1C(C(=O)NC23CCC(C(=O)O)(CC2)CC3)C(c2cccc(Cl)c2F)C2(C(=O)Nc3cc(Cl)ccc32)C12CCCCC2', 'NCI-H510 multicellular tumor spheroid growth, % test/control', 'viability, T/C', '%', 109),
  ('COc1c(OCCCN2CCOCC2)ccc2c3n(c(=NC(=O)c4cnc(N)nc4)nc12)CCN3 + CCN1C(C(=O)NC23CCC(C(=O)O)(CC2)CC3)C(c2cccc(Cl)c2F)C2(C(=O)Nc3cc(Cl)ccc32)C12CCCCC2', 'NCI-H510 multicellular tumor spheroid growth, % test/control', 'viability, T/C', '%', 105),
  ('CNC(C)C(=O)NC1CN(S(=O)(=O)c2cccc(S(=O)(=O)N3CCC4CCC(C(=O)NC(c5ccccc5)c5ccccc5)N4C(=O)C(NC(=O)C(C)NC)C3)c2)CCC2CCC(C(=O)NC(c3ccccc3)c3ccccc3)N2C1=O (stereo not given) + CCN1C(C(=O)NC23CCC(C(=O)O)(CC2)CC3)C(c2cccc(Cl)c2F)C2(C(=O)Nc3cc(Cl)ccc32)C12CCCCC2', 'NCI-H510 multicellular tumor spheroid growth, % test/control', 'viability, T/C', '%', 106),
  ('C=C(F)C(=O)N1CCN(c2nc(OCC3CCCN3C)nc3c2CCN(c2cccc4cccc(Cl)c24)C3)CC1CC#N (stereo not given) + CCN1C(C(=O)NC23CCC(C(=O)O)(CC2)CC3)C(c2cccc(Cl)c2F)C2(C(=O)Nc3cc(Cl)ccc32)C12CCCCC2', 'NCI-H510 multicellular tumor spheroid growth, % test/control', 'viability, T/C', '%', 106),
  ('Cn1ncnc1[C@H]1c2n[nH]c(=O)c3cc(F)cc(c23)N[C@@H]1c1ccc(F)cc1 + CCN1C(C(=O)NC23CCC(C(=O)O)(CC2)CC3)C(c2cccc(Cl)c2F)C2(C(=O)Nc3cc(Cl)ccc32)C12CCCCC2', 'NCI-H510 multicellular tumor spheroid growth, % test/control', 'viability, T/C', '%', 9.76),
  ('CCN1CCN(Cc2ccc(Nc3ncc(F)c(-c4cc(F)c5nc(C)n(C(C)C)c5c4)n3)nc2)CC1 + CCN1C(C(=O)NC23CCC(C(=O)O)(CC2)CC3)C(c2cccc(Cl)c2F)C2(C(=O)Nc3cc(Cl)ccc32)C12CCCCC2', 'NCI-H510 multicellular tumor spheroid growth, % test/control', 'viability, T/C', '%', 74.9),
  ('O=C(c1cc(Cc2n[nH]c(=O)c3ccccc23)ccc1F)N1CCN(C(=O)C2CC2)CC1 + CCN1C(C(=O)NC23CCC(C(=O)O)(CC2)CC3)C(c2cccc(Cl)c2F)C2(C(=O)Nc3cc(Cl)ccc32)C12CCCCC2', 'NCI-H510 multicellular tumor spheroid growth, % test/control', 'viability, T/C', '%', 79.8),
  ('C=CC(=O)N1CCN(c2nc(=O)n(-c3c(C)ccnc3C(C)C)c3nc(-c4c(O)cccc4F)c(F)cc23)C(C)C1 (stereo not given) + CCN1C(C(=O)NC23CCC(C(=O)O)(CC2)CC3)C(c2cccc(Cl)c2F)C2(C(=O)Nc3cc(Cl)ccc32)C12CCCCC2', 'NCI-H510 multicellular tumor spheroid growth, % test/control', 'viability, T/C', '%', 90.3);
